- Test system: ATP;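 note: ATP exposure 15 min at 22 °C before imaging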
- measurement-notes: switch fluorescence ratio, 500 uM ATP over buffer (Cy3 cluster intensity, sum of 5 cycles each) (fold (ratio)); higher = stronger signal-on switching upon ATP binding; sequences stand for … in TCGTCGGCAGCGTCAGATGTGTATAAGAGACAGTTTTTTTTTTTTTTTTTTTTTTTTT…TC
- condition-description: aptamer strand: ATP DNA aptamer (quencher-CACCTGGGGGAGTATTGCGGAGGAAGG + anchor), 100 nM annealed; ATP concentration: 500 uM
parameter-measured: switch fluorescence ratio
API doc: respond with a numeric literal and nothing else, no unit.

switch fluorescence ratio recorded for this sequence, "TCGTTTGCGT" , is 0.984

# switch fluorescence ratio (sequence: "GGTGCTGTCC" ) is 1.03

switch fluorescence ratio reported for this sequence "GGCGGATATT" : 0.998

Field switch fluorescence ratio (entry "ATATTCTTTG" ) reads 0.997

The measured switch fluorescence ratio associated with "ATGAGCGGGG" reads 0.98

For "GCTTTTAGCC" the sequence record lists switch fluorescence ratio as 0.991

The sequence "CACATGTAGC" showed switch fluorescence ratio equal to 1.02

Form field switch fluorescence ratio, entry "ATTTAATCGC" : 1.01

// recorded switch fluorescence ratio for "GGATATCGTT" : 1.03

Entry under test: "TTTGTCTGAC" . Its switch fluorescence ratio was 0.995

The sequence listed as "CATAATTAAT" shows switch fluorescence ratio equal to 0.955

Please fill in: switch fluorescence ratio reported for "TTTAATTAAT" = 0.983

Lab note: measured switch fluorescence ratio of "CTATTGAATC" was 1.02

According to the records, this sequence "TTAAAGTCCC" displays switch fluorescence ratio of 0.993

Data point: "GGAGGGGGTT" ; switch fluorescence ratio = 1.01

Note to self: switch fluorescence ratio recorded for "CAGTATGCAC" was 1.01

The recorded switch fluorescence ratio for entry "ATAGACTTAT" equals 0.977

// switch fluorescence ratio lookup, sequence = "CCTTAATCTT" , result: 0.987

Record summary for "ACAGCTGGGG" : reported switch fluorescence ratio = 1.02

Value of measured switch fluorescence ratio for the entry "GATTCAAGAT" : 0.993

What the record says about "TTTTGGAGCG" : switch fluorescence ratio is 1.05

Per the records, this sequence ( "GTCTGAACGT" ) has switch fluorescence ratio equal to 0.995

# switch fluorescence ratio (sequence: "TAATGGGCTT" ) is 0.997

sequence "GCTCTGGCAA" , switch fluorescence ratio observed: 1.57

The recorded switch fluorescence ratio for "TATTTATGTT" is 0.995

sequence "TCCTGAAAAC" , switch fluorescence ratio observed: 1.1

Sure, the documented switch fluorescence ratio for "GCCAACGCTG" is 1.1

// switch fluorescence ratio lookup, sequence = "TTCGTGTACA" , result: 1.03

Sure, the documented switch fluorescence ratio for "GGGGTTGGCG" is 1.12

So for "ATTGGGATGG" , the logged switch fluorescence ratio turned out to be 1

Lab note: measured switch fluorescence ratio of "TTTCGGGTGG" was 0.979

Query "GATTTAAGTG" yields switch fluorescence ratio of 1.02

Measured switch fluorescence ratio of "ATCGCCCGTT" : 1.01

Entry "TATGGGGGGC" ; switch fluorescence ratio = 0.983

Note to self: switch fluorescence ratio recorded for "CGGGAGACGG" was 1.31

Entry "AGGGGATATT" , switch fluorescence ratio reported as 0.996

Note to self: switch fluorescence ratio recorded for "TTTATGGTCC" was 1.02

So for "TCGATTGGGG" , the logged switch fluorescence ratio turned out to be 0.968

Sure, the documented switch fluorescence ratio for "AAAGAAATTA" is 0.997

Looking up "GGGTTTGGAA" , I see its switch fluorescence ratio listed as 0.961

Kindly note the recorded switch fluorescence ratio for "AGAAGAAGTA" , which is 0.996

Please fill in: switch fluorescence ratio reported for "TTTTCTTTAA" = 0.98

Briefly, switch fluorescence ratio measured for "GCTCTCTTTT" : 0.981
